tested_target: N-type calcium channels in HEK-293 cell (Homo sapiens)
Sequence (Q00975 whole entry): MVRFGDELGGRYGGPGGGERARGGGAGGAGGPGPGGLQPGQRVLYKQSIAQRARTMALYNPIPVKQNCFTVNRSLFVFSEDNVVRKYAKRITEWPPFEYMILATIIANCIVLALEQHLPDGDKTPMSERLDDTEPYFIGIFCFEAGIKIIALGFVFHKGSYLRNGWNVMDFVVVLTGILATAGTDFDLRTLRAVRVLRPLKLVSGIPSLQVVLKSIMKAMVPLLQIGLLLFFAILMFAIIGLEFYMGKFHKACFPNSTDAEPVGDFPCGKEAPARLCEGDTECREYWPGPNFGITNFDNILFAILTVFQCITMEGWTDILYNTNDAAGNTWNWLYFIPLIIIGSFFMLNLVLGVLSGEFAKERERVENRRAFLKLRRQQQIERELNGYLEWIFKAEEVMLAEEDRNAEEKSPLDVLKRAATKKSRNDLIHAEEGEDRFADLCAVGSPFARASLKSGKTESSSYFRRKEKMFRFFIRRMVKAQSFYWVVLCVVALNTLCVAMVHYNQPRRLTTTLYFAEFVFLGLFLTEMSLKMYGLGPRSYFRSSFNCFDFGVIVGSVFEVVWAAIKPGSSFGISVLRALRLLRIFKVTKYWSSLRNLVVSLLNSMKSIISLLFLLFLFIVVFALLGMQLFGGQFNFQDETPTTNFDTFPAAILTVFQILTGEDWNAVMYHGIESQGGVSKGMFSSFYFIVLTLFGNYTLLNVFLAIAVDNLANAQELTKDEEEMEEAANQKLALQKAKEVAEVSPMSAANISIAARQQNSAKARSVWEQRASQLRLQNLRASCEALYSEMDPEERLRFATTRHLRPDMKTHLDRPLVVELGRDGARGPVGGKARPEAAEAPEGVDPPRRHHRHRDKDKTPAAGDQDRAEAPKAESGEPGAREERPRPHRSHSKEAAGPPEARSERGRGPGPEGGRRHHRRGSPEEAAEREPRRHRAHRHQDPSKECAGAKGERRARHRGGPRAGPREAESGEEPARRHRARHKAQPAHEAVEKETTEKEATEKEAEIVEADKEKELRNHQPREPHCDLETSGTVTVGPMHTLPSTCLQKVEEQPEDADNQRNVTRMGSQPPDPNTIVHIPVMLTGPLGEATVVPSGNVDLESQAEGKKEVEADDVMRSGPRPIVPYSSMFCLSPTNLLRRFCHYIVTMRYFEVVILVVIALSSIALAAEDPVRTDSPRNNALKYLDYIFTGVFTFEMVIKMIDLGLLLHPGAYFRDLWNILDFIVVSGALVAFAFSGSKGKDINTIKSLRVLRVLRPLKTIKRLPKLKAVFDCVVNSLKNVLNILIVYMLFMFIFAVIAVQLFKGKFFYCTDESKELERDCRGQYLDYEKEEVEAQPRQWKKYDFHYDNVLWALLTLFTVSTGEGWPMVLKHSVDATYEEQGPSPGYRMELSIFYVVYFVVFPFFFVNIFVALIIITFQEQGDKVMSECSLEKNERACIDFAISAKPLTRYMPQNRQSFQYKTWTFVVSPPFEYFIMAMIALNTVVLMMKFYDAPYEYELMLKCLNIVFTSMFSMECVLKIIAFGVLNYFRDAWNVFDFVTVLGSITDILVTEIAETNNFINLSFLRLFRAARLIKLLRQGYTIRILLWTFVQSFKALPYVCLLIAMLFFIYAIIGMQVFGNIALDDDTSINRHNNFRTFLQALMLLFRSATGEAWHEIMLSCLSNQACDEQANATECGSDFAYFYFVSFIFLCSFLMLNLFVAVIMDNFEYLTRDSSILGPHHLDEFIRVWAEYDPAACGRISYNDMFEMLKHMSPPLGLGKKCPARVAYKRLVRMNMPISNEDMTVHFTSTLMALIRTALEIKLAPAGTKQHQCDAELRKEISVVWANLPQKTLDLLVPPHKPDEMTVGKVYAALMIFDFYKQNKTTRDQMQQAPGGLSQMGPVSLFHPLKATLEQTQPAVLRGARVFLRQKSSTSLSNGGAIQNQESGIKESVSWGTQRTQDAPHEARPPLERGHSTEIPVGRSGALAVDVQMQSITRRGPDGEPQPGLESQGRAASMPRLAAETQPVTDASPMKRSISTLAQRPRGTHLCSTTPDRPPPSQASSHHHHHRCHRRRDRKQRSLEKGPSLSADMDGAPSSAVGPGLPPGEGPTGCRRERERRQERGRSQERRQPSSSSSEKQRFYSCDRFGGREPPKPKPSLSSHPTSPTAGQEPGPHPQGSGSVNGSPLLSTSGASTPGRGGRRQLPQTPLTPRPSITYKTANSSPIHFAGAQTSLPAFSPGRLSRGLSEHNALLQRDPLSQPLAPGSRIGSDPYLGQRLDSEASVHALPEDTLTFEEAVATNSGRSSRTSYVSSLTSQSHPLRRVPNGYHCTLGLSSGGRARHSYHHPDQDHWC
Sequence (P54289 25-956 partner limits assumed): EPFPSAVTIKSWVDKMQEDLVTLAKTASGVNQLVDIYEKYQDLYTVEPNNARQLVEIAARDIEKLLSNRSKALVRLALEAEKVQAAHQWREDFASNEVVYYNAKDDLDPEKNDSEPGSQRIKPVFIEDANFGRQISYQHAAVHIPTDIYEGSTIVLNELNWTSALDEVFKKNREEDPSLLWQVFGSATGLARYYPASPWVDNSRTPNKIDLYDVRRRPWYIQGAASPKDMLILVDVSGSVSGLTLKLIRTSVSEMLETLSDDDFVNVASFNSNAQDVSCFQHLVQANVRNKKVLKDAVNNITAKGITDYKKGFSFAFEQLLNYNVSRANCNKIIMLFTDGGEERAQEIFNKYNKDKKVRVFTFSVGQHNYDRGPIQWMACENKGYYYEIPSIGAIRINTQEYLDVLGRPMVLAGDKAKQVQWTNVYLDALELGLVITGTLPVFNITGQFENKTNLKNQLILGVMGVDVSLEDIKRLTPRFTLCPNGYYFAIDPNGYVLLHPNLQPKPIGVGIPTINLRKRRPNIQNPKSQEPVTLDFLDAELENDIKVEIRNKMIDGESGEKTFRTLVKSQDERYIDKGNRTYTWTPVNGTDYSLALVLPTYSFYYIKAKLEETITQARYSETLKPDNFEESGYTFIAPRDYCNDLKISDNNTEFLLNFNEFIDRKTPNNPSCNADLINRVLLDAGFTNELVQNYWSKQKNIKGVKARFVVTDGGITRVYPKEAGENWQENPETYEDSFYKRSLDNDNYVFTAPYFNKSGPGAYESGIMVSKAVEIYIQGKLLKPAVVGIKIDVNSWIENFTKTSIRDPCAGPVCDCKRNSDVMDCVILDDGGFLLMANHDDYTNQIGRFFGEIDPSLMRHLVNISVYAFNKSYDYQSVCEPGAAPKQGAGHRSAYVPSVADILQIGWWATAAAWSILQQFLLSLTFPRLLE
Sequence (P54289 957-1103 partner limits assumed): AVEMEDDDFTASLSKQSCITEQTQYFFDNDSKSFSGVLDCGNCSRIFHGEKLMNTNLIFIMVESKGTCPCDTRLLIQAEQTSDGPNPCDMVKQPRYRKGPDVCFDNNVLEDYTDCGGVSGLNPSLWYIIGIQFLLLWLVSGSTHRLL
Sequence (P54284 whole entry partner): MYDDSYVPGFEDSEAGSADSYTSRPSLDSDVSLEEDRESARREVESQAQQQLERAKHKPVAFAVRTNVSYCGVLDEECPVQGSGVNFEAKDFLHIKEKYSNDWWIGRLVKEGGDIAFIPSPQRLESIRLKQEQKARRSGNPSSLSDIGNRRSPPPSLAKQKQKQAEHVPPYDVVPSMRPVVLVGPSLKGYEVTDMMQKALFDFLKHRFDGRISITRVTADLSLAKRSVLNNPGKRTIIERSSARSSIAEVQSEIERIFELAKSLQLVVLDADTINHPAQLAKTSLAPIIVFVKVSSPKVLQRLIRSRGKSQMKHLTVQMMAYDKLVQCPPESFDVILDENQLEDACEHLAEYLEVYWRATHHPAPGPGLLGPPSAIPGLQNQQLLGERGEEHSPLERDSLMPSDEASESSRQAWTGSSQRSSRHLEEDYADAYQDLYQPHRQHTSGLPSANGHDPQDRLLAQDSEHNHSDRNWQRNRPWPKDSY
test_name: Test A: Calcium imaging, inhibition of N-type calcium channels (FLUO-3, 80 mM K+ depolarisation)
test_parameters: FLUO-3 charged recombinant HEK-293 cells, potassium depolarisation (80 mM K+)
Where a name gives a salt, the structure may show the parent alone.
Threshold-based label: IC50 under 2000 nM gives True, IC50 not under 2000 nM gives False.

Worked cases, answers included:
Problem: In the record for CC1(C)CN=C(c2ccccc2Oc2cc(C(F)(F)F)cc(C(F)(F)F)c2)c2ccccc21 [Example 9, hydrochloride] , is IC50 less than 2000 nM?
Result: False

Problem: In the record for COc1ccc2c(c1)C(C)(C)CN=C2c1ccccc1Oc1cc(C(F)(F)F)cc(C(F)(F)F)c1 , is IC50 less than 2000 nM?
Result: False

Problem: In the record for COc1cc2c(cc1OC)C(C)(C)CN=C2c1ccc(Oc2cc(C(F)(F)F)cc(C(F)(F)F)c2)cc1 , is IC50 less than 2000 nM?
Result: True

Problem: In the record for COc1cc2c(cc1OC)C(C)(C)CN=C2c1cccc(Oc2ccccc2)c1 , is IC50 less than 2000 nM?
Result: True

Problem: In the record for COc1cc2c(cc1OC)C(c1ccc(Oc3ccccc3)cc1)=NCC2 , is IC50 less than 2000 nM?
Result: True

Problem: In the record for COc1cc2c(cc1OC)C(C)(C)CN=C2c1ccc(Oc2ccccc2)cc1 , is IC50 less than 2000 nM?
Result: True

Turning to the following compound.
Problem: In the record for COc1cc2c(cc1OC)C(C)(C)CN=C2c1cccc(Oc2cc(C(F)(F)F)cc(C(F)(F)F)c2)c1 , is IC50 less than 2000 nM?
Result: True
